Data provenance: the nanobody polyreactivity screen of Harvey et al. (2022)

assay: yeast display, Sf9 membrane polyspecificity reagent, FACS + sequencing; frameworks hold sequencing errors
property: polyreactivity (PSR sort gate)

sequence.data	property	measured
QVQLVESGGGLVKAGGILRLICVASGRTFLRYGMGWYRQAPGKERELVAAISIVGNTYYADSVKGRFTISRDNAKNTVYLQMNSLKPEDTAVYYCAAGRRFGRDYWGQGTQVTVSS	polyreactivity (PSR sort gate)	high polyreactivity
QVQLVESGGGLVQAGGSLRLSCASSGSIFPRYAMGSYRPAPGKERELVAAISQSGGRTYYADSVKGRFTISRDNAKNTVYLQMNSMKPEDTAVYYCAALVSGEYDYWGQGTQVTVSS	polyreactivity (PSR sort gate)	high polyreactivity
QVQLVESGGGLVQAGGSLRLSCAASGNIFTIYAMGWYRQAPGKERELVAAIDSDGTTYYADSVKGRFTISRYNAKNTVYLQMNSLKPEDTAVYYCAAGGRSVRYNYWGQGTQVTVSS	polyreactivity (PSR sort gate)	high polyreactivity
KVQLVESGGGLVQAGGRLRISCAASGRICYSNVMGWSRQAPGKERELVAAIFSGGSTYYADSVKGRFTISRDNAKNTVYLQMNSLKPEDTAVYDCAADYYYPFDYWGQGTQVTVSS	polyreactivity (PSR sort gate)	low polyreactivity
QVQHVESGGGLVQAGGSLRLSCAASGSIFVPYALGWSRQAPGKEREFVAVISLRGSRTYYADSVKGRFTISRDNAKNTVYLQMNSLKPEDTAVYYCATTGYRLRQATRYDYRGQGTQVTVSS	polyreactivity (PSR sort gate)	high polyreactivity
QVQLVESGGGLVQAGGSLRLSCAASGFTFGHYARGWSRQAPGKERELVAAISRSGGTTSYADSVKGRFTISRDNAKNTVYLQMNSLKTEDTAVYYCNKDYIWARYGGGRDYWGQGTQVTVSS	polyreactivity (PSR sort gate)	low polyreactivity
QVQLVESGGGLVQAGGSLSLSCAASGRIFKSYAMGWYRQAPGKERELVAAIRSGGSTYYADSVKGRFTISRDNAKNTVYFQMNSLKPEDTAVYYCNRVTRTWKVTYHYWGQGTQVTVSS	polyreactivity (PSR sort gate)	high polyreactivity
QVQLVESGGGLVQAGGSLRLSCAASGSTFPTYAMGWYRPAPGKERELVAAITRGGRTYYADSVKGRFTISRDNAKNTVYLQMNSLKPEDTAVYYCAAVYYGAAQYNYWGQGTQVTVSS	polyreactivity (PSR sort gate)	high polyreactivity
QVQLVESGGGLFQAGGSLRLTCAASGSTFPYHTMGWYRQATGKQRDFVAAITGDGGTTYYADSVKGRFTISRDNAKNTVYLQMNSLKPEDTAVYYCNALYAPYGWFYCLYDYWGPGTQVTVSS	polyreactivity (PSR sort gate)	low polyreactivity
QVQLVESGGGLVQAGGSLRLSCAASGSTFWFYAMGWYRQSPGKERELVAVISNSGSTYYADSVKGRFTISRDNAKNTVYLQMNSLKPEDTAVYYCNKDGGGDSYWYDYWGQGTQVTVSS	polyreactivity (PSR sort gate)	low polyreactivity
QVQLVESGGGLVQAGGSLRISCAASGSIFYWNTMGWYRQAPGKERELVATITRSGGSTRYADSVKGRCTISRDNAKITVYLQMNSLKPEDTAVYYCAAYRVYKRVVRGFDYWGQGTQVTVSS	polyreactivity (PSR sort gate)	low polyreactivity
QVQLVESVGGLVQAGGSLRLSCAASGSIFYGYAMGWYRQAAGKEREFVAAITFSATSTYYADSVKGRFTISRDNAKNTVYLQMNSLKPEVTAVYYCNASHVSHYRARDYWGQGTQVTVSS	polyreactivity (PSR sort gate)	low polyreactivity
HVQLVESGGGLVQAGGSLRLSCAASGFIFDVNAMGWYRQAPGKERELVAVIRGSGGSTYYADSVKGRFTISRDNAKNTVYLQMNSLKPADTAVYYCAAAVNHVAYHYNYWGQGTQVTVSS	polyreactivity (PSR sort gate)	high polyreactivity
QVQLVESGGGLVQAGGSRRLSCAASGSTFRYNTMGWYRQAPGKERDLVAAITGGGGSTYYADSVKGRFTISRDNAKNTVYLQMNSLKPEDTAVYYCAKRHWYDCYVSSYTTRYDYWGQGTQVTVSS	polyreactivity (PSR sort gate)	low polyreactivity
QVQLVESGGGLVQAGGSLRLSCAASGSTFWSYAMGWYRPAPGKERELVAAITSGGRTYYADSVKGRFTISRDNAKNTVYLQMNSLKPEDTAVYYCAAEGSVGLYGLIMHYWGQGTQVTVSS	polyreactivity (PSR sort gate)	high polyreactivity
QVQLVESGGGLVQAGGSLRLSCAASGSIFRNYAMGWYRQAPGKERELVASIRYSGGRTNYADSVKGRFTISRDNAKNTVYLQMNSLKPEDTAVYYCAADPGYGWQRAYYYWGQGTQVTVSS	polyreactivity (PSR sort gate)	high polyreactivity
QVQLVESGGGLVQAGGSLRCSWAASGFIFTPYAMGWYRQAPGTEREFVATITWSGGSTNYADSVKGRFTISRDNAKNTVYLPMNSLKPDDTAVYYCNADTWSPNDYWGQGTQVTVSS	polyreactivity (PSR sort gate)	low polyreactivity
QVQLVESGGGLVQAGGSLRLSCAASGRTFTHYAMGWYRQAPGKERELVAAISRSGGTTYYADSVKGRFTISRDNAKNTVYLQMNSLKPEDTAVYYCAARWWYRYNYDYWGQGTQVTVSS	polyreactivity (PSR sort gate)	high polyreactivity
QVQLVESGGGLVQAGGSLRLSCAASGRTFYIYAMGWYRQAPGKERELVADITSGGSTYYADSVKGRFTISRDNAKNTVYLQMNSLKPDDTAVYYCAADWVTFYSYTEYDYWGQGSQVTVSS	polyreactivity (PSR sort gate)	low polyreactivity
QVQLVESGGGLVQAGGSLRLSCAASGRTFRVYTMGWYRQAPGKERELVAAISSRGGSTYYADSVKGRFTISRDNAKNTVYLQMYSLKPEDTAVYYCAASKFRSGGYDYWGQGTQVTVSS	polyreactivity (PSR sort gate)	high polyreactivity
QVQLVESGGGLVQAGGSLRLSCAASGSIFTGNTMGWYRQAPGKERELVAAISRRGGRTYYADSVKGRFTISRDNAKNTVYLQMNSLKPEDTAVYYCAALGRDSTPHGYWGQGTQVTVSS	polyreactivity (PSR sort gate)	high polyreactivity
